So I've got a bunch of compounds here, and I need their GI50 values.
test: Growth inhibition of human MiaPaCa cells after 48 hrs by SRB assay; assay type: functional; details: MIA PaCa-2, 48 h

Need GI50 of `O=C(CCN1C(=O)CSc2ccccc21)N1CCN(c2ccccc2F)CC1` , thanks.
> 100 µM

Now consider `O=C(CCN1C(=O)CSc2ccccc21)NCCCN1CCN(c2ccc([N+](=O)[O-])cc2)CC1` .
> 100 µM

Now consider `COc1cccc2c1C(=O)c1c(O)c3c(c(O)c1C2=O)C[C@@](O)(C(=O)CO)C[C@@H]3O[C@H]1C[C@H](N)[C@H](O)[C@H](C)O1` .
0.095 µM

Now consider `COc1ccccc1N1CCN(C(=O)CCN2C(=O)CSc3ccccc32)CC1` .
34.9 µM

Now consider `CC(=O)O[C@H]1C(=O)[C@@]2(C)[C@H]([C@H](OC(=O)c3ccccc3)[C@]3(O)C[C@H](OC(=O)[C@H](O)[C@@H](NC(=O)c4ccccc4)c4ccccc4)C(C)=C1C3(C)C)[C@]1(OC(C)=O)CO[C@@H]1C[C@@H]2O` .
0.06 µM

Now consider `O=C(CCN1C(=O)CSc2ccccc21)NCCCN1CCSCC1` .
83.3 µM

Now consider `CC(C)(C)OC(=O)N1CCN(C(=O)CCN2C(=O)CSc3ccccc32)CC1` .
51.5 µM

----------
assay: Growth inhibition of human HeLa cells after 48 hrs by SRB assay; type: functional; settings: read-out: pGI50 (converted)
Quantity: GI50 (µM)
Could you give me the number in µM? Just the number is fine.

Need GI50 of `O=C(CCN1C(=O)CSc2ccccc21)N1CCN(c2ccc([N+](=O)[O-])cc2)CC1` , thanks.
8.32

Now consider `O=C(CCN1C(=O)CSc2ccccc21)NCCCN1CCC(Cc2ccccc2)CC1` .
56.2

Now consider `O=C(CCN1C(=O)CSc2ccccc21)N1CCSCC1` .
18.6

Now consider `O=C(CCN1C(=O)CSc2ccccc21)NCCCN1CCN(c2ccc([N+](=O)[O-])cc2)CC1` .
100

Now consider `O=C(CCN1C(=O)CSc2ccccc21)NCCCN1CCSCC1` .
0.12

Now consider `CC(C)(C)OC(=O)N1CCN(C(=O)CCN2C(=O)CSc3ccccc32)CC1` .
100
